Listed here are substances together with their documented [θ]222 Benign.
test: Circular dichroism spectroscopy of helical structure (benign buffer and 50% TFE); format: physicochemical; conditions: 25° C., benign buffer (100 mM KCl, 50 mM PO4 pH 7.0)
Square brackets hold non-standard residues; d marks the D form. Ends that are not written are not given here.

Previously resolved entries follow.
Ask: Could you tell me which [θ]222 Benign is on file for Ac-KWKSFLKTFKSASKTVLHTALKAISS-NH2 [NSL] ?
Reply: −1,300 deg · cm^2 · dmol^−1

Ask: Give its [θ]222 Benign value. Item: NLD: V681 analog with D-Leu at position 13 (non-polar face) (KWKSFLKTFKSA[dL]KTVLHTALKAISS-NH2; not fully specified)
Reply: −7,350 deg · cm^2 · dmol^−1

Ask: I am curious: what [θ]222 Benign value has been reported for PKL: V681 analog with L-Lys at position 11 (polar face) (KWKSFLKTFKKAVKTVLHTALKAISS) ?
Reply: −5,950 deg · cm^2 · dmol^−1

Ask: Tell me the measured [θ]222 Benign of PLL: V681 analog with L-Leu at position 11 (polar face) (KWKSFLKTFKLAVKTVLHTALKAISS) , please.
Reply: −10,850 deg · cm^2 · dmol^−1

Ask: Report [θ]222 Benign for PAL: V681 analog with L-Ala at position 11 (polar face) (KWKSFLKTFKAAVKTVLHTALKAISS) please.
Reply: −13,600 deg · cm^2 · dmol^−1

Ask: [θ]222 Benign lookup needed for Ac-KWKSFLKTFKSALKTVLHTALKAISS-NH2 [NLL] , thanks.
Reply: −20,600 deg · cm^2 · dmol^−1

Please find the next substance below.
Ask: I am curious: what [θ]222 Benign value has been reported for Ac-KWKSFLKTFKVAVKTVLHTALKAISS-NH2 [PVL] ?
Reply: −7,550 deg · cm^2 · dmol^−1

###

assay: Circular dichroism spectroscopy of helical structure (benign buffer and 50% TFE); type: physicochemical; details: 25° C., 50% TFE; relative to NAL in 50% TFE
Square brackets hold non-standard residues; d marks the D form. Ends that are not written are not given here.
endpoint: % helix 50% TFE (%)
Express it in %; write the number only.

These solved cases illustrate the format of a correct answer.
Ask: I have this substance here, Ac-KWKSFLKTFKSALKTVLHTALKAISS-NH2 [NLL] , and I need its recorded % helix 50% TFE.
Reply: 98

Ask: I am curious: what % helix 50% TFE value has been reported for Ac-KWKSFLKTFKVAVKTVLHTALKAISS-NH2 [PVL] ?
Reply: 80

Ask: Using the record for PLL: V681 analog with L-Leu at position 11 (polar face) (KWKSFLKTFKLAVKTVLHTALKAISS) , report its % helix 50% TFE.
Reply: 99

New cases:
Ask: Endpoint output: % helix 50% TFE of PAL: V681 analog with L-Ala at position 11 (polar face) (KWKSFLKTFKAAVKTVLHTALKAISS) . Value?
Reply: 95

Ask: Consider the substance shown here: PKL: V681 analog with L-Lys at position 11 (polar face) (KWKSFLKTFKKAVKTVLHTALKAISS) What is its recorded % helix 50% TFE?
Reply: 94

Ask: Requested read-out: % helix 50% TFE. Entry: Ac-KWKSFLKTFKSAGKTVLHTALKAISS-NH2 [NG]
Reply: 84

Ask: Request the reported % helix 50% TFE associated with Ac-KWKSFLKTFKSASKTVLHTALKAISS-NH2 [NSL]
Reply: 95

Ask: Fill in the blank: the reported % helix 50% TFE of NLD: V681 analog with D-Leu at position 13 (non-polar face) (KWKSFLKTFKSA[dL]KTVLHTALKAISS-NH2; not fully specified) is ____.
Reply: 89

Data origin, for the record: patent US8252737B2
